system name: Cynomolgus T cell receptor on cynomolgus primary T cells (cynomolgus monkey)
test: cell-based or functional assay
reported property: % lysis, KG-1a, Cynomolgus T cell mediated killing

{"columns": ["binder", "measured"],
 "data": [
  ["T017000634 (bispecific antibody, also called A0110056A10(E1D)-35GS-T0170056G05(L11V, D27Y, L34Y, M77T, K83R, V89L, F91Y, F95L, Y99W)-A) DVQLVESGGGLVQAGGSLRLSCAASGITSKINDMGWYRQTPGNYREWVASITATGTTNYRDSVKGRFTISRDNAKSTVYLQMNSLKPEDTTVYYCNTFPPISNFWGQGTLVTVSSGGGGSGGGGSGGGGSGGGGSGGGGSGGGGSGGGGSEVQLVESGGGVVQPGGSLRLSCVASGYVHKINFYGWYRQAPGKEREKVAHISIGDQTDYADSAKGRFTISRDESKNTVYLQMNSLRPEDTALYYCRALSRIWPYDYWGQGTLVTVSSA", "41%"],
  ["T017000128 (bispecific antibody) DVQLVESGGGLVQPGGSLRLSCVASGDVHKINFLGWYRQAPGKEREKVAHISIGDQTDYADSAKGRFTISRDESKNMVYLQMNSLKPEDTAVYFCRAFSRIYPYDYWGQGTLVTVSSGGGGSGGGGSGGGGSGGGGSGGGGSGGGGSGGGGSEVQLVESGGGLVQAGGSLRLSCAASGITSKINDMGWYRQTPGNYREWVASITATGTTNYRDSVKGRFTISRDNAKSTVYLQMNSLKPEDTTVYYCNTFPPISNFWGQGTLVTVSSA", "61%"],
  ["T017000633 (bispecific antibody) DVQLVESGGGVVQPGGSLRLSCVASGYVHKINFYGWYRQAPGKEREKVAHISIGDQTDYADSAKGRFTISRDESKNTVYLQMNSLRPEDTALYYCRALSRIWPYDYWGQGTLVTVSSGGGGSGGGGSGGGGSGGGGSGGGGSGGGGSGGGGSEVQLVESGGGLVQAGGSLRLSCAASGITSKINDMGWYRQTPGNYREWVASITATGTTNYRDSVKGRFTISRDNAKSTVYLQMNSLKPEDTTVYYCNTFPPISNFWGQGTLVTVSSA", "64%"],
  ["T017000131 (bispecific antibody, also called A0110056A10(E1D)-35GS-T0170056G05-A) DVQLVESGGGLVQAGGSLRLSCAASGITSKINDMGWYRQTPGNYREWVASITATGTTNYRDSVKGRFTISRDNAKSTVYLQMNSLKPEDTTVYYCNTFPPISNFWGQGTLVTVSSGGGGSGGGGSGGGGSGGGGSGGGGSGGGGSGGGGSEVQLVESGGGLVQPGGSLRLSCVASGDVHKINFLGWYRQAPGKEREKVAHISIGDQTDYADSAKGRFTISRDESKNMVYLQMNSLKPEDTAVYFCRAFSRIYPYDYWGQGTLVTVSSA", "14%"]
]}
